Each recorded value in this set is attributed to PubChem BioAssay AID1347426.

experiment: Novel Modifiers of Survival Motor Neuron (SMN) Protein: Gene Identification via Genome-wide siRNA Screen; conditions: HEK293T SMN2-luciferase reporter, siRNA knockdown, 72 h; actives lie on both sides;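 note: luminescence tracks full-length SMN protein made from the SMN2 reporter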
Out of some 31,000 sequences screened, about 1,400 (4.5%) were called active. The sample as a whole holds a higher share of actives than the screen did.

{"record_sequence": "GCCUUAAGGUAUUCGUGUATT against EXTL1", "median seed-adjusted z-score": 0}
{"record_sequence": "CAUGGAACAUUGUGAGAAATT against RPS6KB1", "median seed-adjusted z-score": 1.4}
{"record_sequence": "GCAGCCUUGUCAUCGACAATT against PDLIM1", "median seed-adjusted z-score": -0.189}
{"record_sequence": "GGAGGAUAGCAGCAGAAGATT against ATP5I", "median seed-adjusted z-score": -0.871}
{"record_sequence": "GGAAAGUUAUCAGGAUGCATT against SAG", "median seed-adjusted z-score": 0}
{"record_sequence": "CAGUCUUUAUGCAAUGGAATT against TYR", "median seed-adjusted z-score": 0.131}
